Target: Solute carrier family 22 member 6 (Rattus norvegicus)
Sequence (O35956 whole entry): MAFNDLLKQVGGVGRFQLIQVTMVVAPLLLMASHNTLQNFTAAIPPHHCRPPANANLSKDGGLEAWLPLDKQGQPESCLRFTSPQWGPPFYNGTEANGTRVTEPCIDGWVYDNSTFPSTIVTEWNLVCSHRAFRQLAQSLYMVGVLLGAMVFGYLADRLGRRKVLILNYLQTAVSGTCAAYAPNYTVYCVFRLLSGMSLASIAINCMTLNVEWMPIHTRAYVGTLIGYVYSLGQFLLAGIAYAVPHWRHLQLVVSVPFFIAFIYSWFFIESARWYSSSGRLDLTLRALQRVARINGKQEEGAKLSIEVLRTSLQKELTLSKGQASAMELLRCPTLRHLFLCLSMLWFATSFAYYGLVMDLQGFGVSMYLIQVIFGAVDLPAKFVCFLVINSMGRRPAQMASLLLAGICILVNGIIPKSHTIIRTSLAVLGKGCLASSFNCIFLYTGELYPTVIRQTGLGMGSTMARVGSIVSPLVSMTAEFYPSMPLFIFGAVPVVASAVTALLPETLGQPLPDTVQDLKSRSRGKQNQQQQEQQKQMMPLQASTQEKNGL

Molecule: CN/C(=N/CCSCc1nc[nH]c1C)NC#N [CIMETIDINE]
IC50: > 2 mM

* * *

Target: Solute carrier family 22 member 7 (Homo sapiens)
Sequence (Q9Y694 whole entry): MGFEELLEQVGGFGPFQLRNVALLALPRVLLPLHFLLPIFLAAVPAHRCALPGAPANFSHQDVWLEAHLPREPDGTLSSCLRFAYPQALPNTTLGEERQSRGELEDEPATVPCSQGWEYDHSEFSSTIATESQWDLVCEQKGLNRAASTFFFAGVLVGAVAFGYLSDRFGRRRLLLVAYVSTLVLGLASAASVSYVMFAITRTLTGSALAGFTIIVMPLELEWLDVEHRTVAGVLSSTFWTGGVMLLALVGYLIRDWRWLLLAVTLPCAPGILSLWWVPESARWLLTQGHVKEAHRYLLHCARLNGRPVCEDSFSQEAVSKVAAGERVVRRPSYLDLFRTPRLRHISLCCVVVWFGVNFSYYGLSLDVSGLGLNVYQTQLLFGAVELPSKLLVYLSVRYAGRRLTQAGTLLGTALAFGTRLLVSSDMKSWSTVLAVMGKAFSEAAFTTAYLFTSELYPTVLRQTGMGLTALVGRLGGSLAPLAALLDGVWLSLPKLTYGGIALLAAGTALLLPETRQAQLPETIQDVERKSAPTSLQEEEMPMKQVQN
Test Summary: TP_TRANSPORTER: inhibition of PGF2alpha uptake (PGF2: 50nM) in hOAT2-expressing S2 cells
# IC50 values compiled below
Reported Endpoint: IC50 (µM)

Smiles Repr: CC[C@H](C)C(=O)O[C@H]1C[C@H](O)C=C2C=C[C@H](C)[C@H](CC[C@@H](O)C[C@@H](O)CC(=O)O)[C@H]21
Value Measured: 352
--
Smiles Repr: CCCN(CCC)S(=O)(=O)c1ccc(C(=O)O)cc1
Value Measured: 668

* * *

Measured pIC50 by item
Target: UniProtKB Q9NSA0
Sequence (Q9NSA0 whole entry): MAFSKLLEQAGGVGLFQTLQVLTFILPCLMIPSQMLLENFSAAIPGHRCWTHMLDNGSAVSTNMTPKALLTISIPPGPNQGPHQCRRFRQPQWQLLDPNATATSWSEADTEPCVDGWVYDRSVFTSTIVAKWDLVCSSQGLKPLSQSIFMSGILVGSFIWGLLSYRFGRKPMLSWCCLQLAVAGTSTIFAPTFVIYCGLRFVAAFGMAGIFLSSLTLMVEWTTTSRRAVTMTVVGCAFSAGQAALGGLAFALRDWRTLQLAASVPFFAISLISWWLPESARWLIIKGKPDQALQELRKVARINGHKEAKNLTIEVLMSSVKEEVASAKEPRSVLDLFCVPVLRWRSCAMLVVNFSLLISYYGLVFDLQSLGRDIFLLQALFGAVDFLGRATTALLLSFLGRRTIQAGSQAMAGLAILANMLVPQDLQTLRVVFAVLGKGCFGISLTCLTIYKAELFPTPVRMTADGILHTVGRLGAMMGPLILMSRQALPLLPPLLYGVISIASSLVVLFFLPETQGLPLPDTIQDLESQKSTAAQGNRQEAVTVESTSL
Test Summary: TP_TRANSPORTER: inhibition of ES uptake (ES: 50nM) in hOAT4-expressing S2 cells
pIC50: −log10 of the molar value.

Compound: CN/C(=N/CCSCc1nc[nH]c1C)NC#N [CIMETIDINE]
Relation Symbol: <
pIC50: 2.70

Compound: O=C(O)CCNC(=O)c1ccccc1 [BETAMIPRON]
Relation Symbol: =
pIC50: 3.32

Compound: CC[C@H](C)C(=O)O[C@H]1C[C@H](O)C=C2C=C[C@H](C)[C@H](CC[C@@H](O)C[C@@H](O)CC(=O)O)[C@H]21 [PRAVASTATIN]
Relation Symbol: =
pIC50: 3.23

* * *

Target: UniProtKB Q5RLM2
Sequence (Q5RLM2 whole entry): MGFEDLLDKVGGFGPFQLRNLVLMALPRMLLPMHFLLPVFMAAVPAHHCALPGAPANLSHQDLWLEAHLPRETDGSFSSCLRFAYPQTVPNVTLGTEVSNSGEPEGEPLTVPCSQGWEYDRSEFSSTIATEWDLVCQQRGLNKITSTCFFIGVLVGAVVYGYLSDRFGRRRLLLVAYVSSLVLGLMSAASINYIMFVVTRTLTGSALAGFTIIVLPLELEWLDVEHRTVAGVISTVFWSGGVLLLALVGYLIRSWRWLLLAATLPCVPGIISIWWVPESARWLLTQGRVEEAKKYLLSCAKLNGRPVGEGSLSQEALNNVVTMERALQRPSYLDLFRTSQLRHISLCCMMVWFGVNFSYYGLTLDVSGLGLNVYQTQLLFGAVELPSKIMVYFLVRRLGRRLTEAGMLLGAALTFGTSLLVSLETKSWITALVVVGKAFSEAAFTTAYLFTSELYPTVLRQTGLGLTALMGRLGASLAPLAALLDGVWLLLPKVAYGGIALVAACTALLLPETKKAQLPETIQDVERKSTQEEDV
Test Summary: TP_TRANSPORTER: inhibition of PGF2alpha uptake (PGF2: 50nM) in rOAT2-expressing S2 cells
pIC50: −log10 of the molar value.

Compound: CCCN(CCC)S(=O)(=O)c1ccc(C(=O)O)cc1 [PROBENECID]
pIC50: 3.01
//
Compound: CC[C@H](C)C(=O)O[C@H]1C[C@H](O)C=C2C=C[C@H](C)[C@H](CC[C@@H](O)C[C@@H](O)CC(=O)O)[C@H]21 [PRAVASTATIN]
pIC50: 3.35

* * *

Target: Organic anion transporter 3 (Rattus norvegicus, UniProt Q9R1U7)
Sequence (Q9R1U7 whole entry): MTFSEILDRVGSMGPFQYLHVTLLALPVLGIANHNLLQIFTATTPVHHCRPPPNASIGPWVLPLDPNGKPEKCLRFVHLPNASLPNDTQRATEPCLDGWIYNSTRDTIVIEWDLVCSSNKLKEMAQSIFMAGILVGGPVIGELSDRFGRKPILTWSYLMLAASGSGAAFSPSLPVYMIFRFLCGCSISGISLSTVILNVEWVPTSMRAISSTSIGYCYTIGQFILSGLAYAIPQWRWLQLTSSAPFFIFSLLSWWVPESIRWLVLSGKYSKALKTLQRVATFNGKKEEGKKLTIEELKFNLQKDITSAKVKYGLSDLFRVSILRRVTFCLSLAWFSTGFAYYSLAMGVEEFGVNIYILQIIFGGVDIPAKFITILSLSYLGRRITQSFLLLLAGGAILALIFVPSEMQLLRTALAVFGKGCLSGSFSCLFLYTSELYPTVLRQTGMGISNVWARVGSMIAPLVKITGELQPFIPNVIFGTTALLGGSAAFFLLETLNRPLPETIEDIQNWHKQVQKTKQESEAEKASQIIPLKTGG
Test Summary: TP_TRANSPORTER: inhibition of ES uptake (ES: 50nM) in rOAT3-expressing S2 cells
IC50 strictly under 20 µM means MET; at 20 µM or over means NOT MET.

Smiles Repr: CC[C@H](C)C(=O)O[C@H]1C[C@H](O)C=C2C=C[C@H](C)[C@H](CC[C@@H](O)C[C@@H](O)CC(=O)O)[C@H]21
Target: Organic anion transporter 3 (Rattus norvegicus, UniProt Q9R1U7)
Cat: MET

Smiles Repr: CC1(C)C[C@@H]1C(=O)N/C(=C\CCCCSC[C@H](N)C(=O)O)C(=O)O
Target: Organic anion transporter 3 (Rattus norvegicus, UniProt Q9R1U7)
Cat: NOT MET

Smiles Repr: O=C(O)CCNC(=O)c1ccccc1
Target: Organic anion transporter 3 (Rattus norvegicus, UniProt Q9R1U7)
Cat: NOT MET

Smiles Repr: CCCN(CCC)S(=O)(=O)c1ccc(C(=O)O)cc1
Target: Organic anion transporter 3 (Rattus norvegicus, UniProt Q9R1U7)
Cat: MET

Smiles Repr: CN/C(=N/CCSCc1nc[nH]c1C)NC#N
Target: Organic anion transporter 3 (Rattus norvegicus, UniProt Q9R1U7)
Cat: NOT MET
